Recorded values, source PubChem BioAssay AID1456.

biological target: Solute carrier family 12 member 5 (Homo sapiens); assay: modulation of human KCC2 ion transport – cell-based, HEK293 KCC2, FluoZin-2 fluorescence, MLSMR, primary screen (AID 1456); settings: KCC2 cells, thallium flux FluoZin-2 fluorescence; at 10 µM;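 also: slope of fluorescence scaled to starting intensity during 10 to 20 s after thallium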
Among all 190,000 compounds or so, about 4,100 (2.2%) were called active. The full list was thinned out, with actives kept by preference.
Assay Metric: B-score of Tl+ flux slope (higher = more flux/activation; lower = inhibition)

- Molecule: "O=C(CSc1nnc(-c2c[nH]c3ccccc23)o1)c1ccccc1"
  Observed Measurement: 0.154
- Molecule: "Cc1ccc(F)cc1NC(=O)N1CCCN(c2ccc(C(F)(F)F)cn2)CC1"
  Observed Measurement: 0.46
- Molecule: "CN(c1ccccn1)c1ncnc2[nH]ncc12"
  Observed Measurement: 0.0938
- Molecule: "CN(C)S(=O)(=O)c1cccc(C(=O)Nc2cccnc2)c1"
  Observed Measurement: 0.857
- Molecule: "CCN(CC)S(=O)(=O)c1cccc(C(=O)Nc2ccccc2)c1"
  Observed Measurement: 0.179
- Molecule: "O=C1CC(Cc2ccc(Cl)cc2)C(=O)N1c1cc(Cl)ccn1 (stereo unspecified)"
  Observed Measurement: -1.2

###

molecular target: Solute carrier family 12 member 5 (Homo sapiens); test: modulation of human KCC2 ion transport – cell-based, HEK293 KCC2, FluoZin-2 fluorescence, MLSMR, primary screen (AID 1456); details: KCC2 cells, thallium flux FluoZin-2 fluorescence; at 10 µM;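 also: slope of fluorescence scaled to starting intensity during 10 to 20 s after thallium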
Screen size: about 190,000 compounds; about 4,100 (2.2%) were called active.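 The calls were made as follows: active = thallium flux slope and its plate-corrected score both differing from the plate sample mean at a set confidence after two filtering rounds, in either direction; inactive = the rest.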 Shown is part of a subset that was picked to be rich in actives.
Possible outcomes: t (active), f (inactive)

- Compound: "COC(=O)c1sccc1NC(=O)c1csc2c1CCCC2"
  Discrete Label: "f"
- Compound: "Cc1ccccc1N/N=C/c1ccc(N2CCOCC2)cc1"
  Discrete Label: "t"
- Compound: "COc1ccc(CCN2C(=O)CC(N3CCC(C(N)=O)CC3)C2=O)cc1OC (stereo unspecified)"
  Discrete Label: "f"
- Compound: "COc1ccc2[nH]c3ccc(OC)cc3c2c1"
  Discrete Label: "f"
- Compound: "CCO[C@H]1OC(C(=O)N2CCN(Cc3ccccc3)CC2)=C[C@@H](c2cn(C(C)=O)c3ccccc23)[C@@H]1CCCO"
  Discrete Label: "f"
- Compound: "COc1ccc([N+](=O)[O-])cc1NC(=O)COC(=O)/C=C/c1ccco1"
  Discrete Label: "t"
- Compound: "COc1ccc(C(=O)NNc2cc(C)nc(NNC(=O)c3ccc(OC)cc3)n2)cc1"
  Discrete Label: "f"
- Compound: "COc1cc(C(=O)Nc2nccs2)cc(OC)c1OC"
  Discrete Label: "f"
- Compound: "CC(C)CNC(=O)COC(=O)/C=C/c1ccco1"
  Discrete Label: "f"
- Compound: "COc1ccccc1P(=O)(c1ccccc1)c1ccccc1NC(C)=O (stereo unspecified)"
  Discrete Label: "f"
- Compound: "Cc1ccc(C2CC(c3cccc(C)c3)n3nc(N)nc3N2)cc1 (stereo unspecified)"
  Discrete Label: "f"

###

Reported B-score of Tl+ flux slope (higher = more flux/activation; lower = inhibition) values for a set of compounds
target: Solute carrier family 12 member 5 (Homo sapiens) (UniProt Q9H2X9); assay: modulation of human KCC2 ion transport – cell-based, HEK293 KCC2, FluoZin-2 fluorescence, MLSMR, primary screen (AID 1456); settings: KCC2 cells, thallium flux FluoZin-2 fluorescence; at 10 µM;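 also: slope of fluorescence scaled to starting intensity during 10 to 20 s after thallium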
Sequence (Q9H2X9 whole entry, looked up): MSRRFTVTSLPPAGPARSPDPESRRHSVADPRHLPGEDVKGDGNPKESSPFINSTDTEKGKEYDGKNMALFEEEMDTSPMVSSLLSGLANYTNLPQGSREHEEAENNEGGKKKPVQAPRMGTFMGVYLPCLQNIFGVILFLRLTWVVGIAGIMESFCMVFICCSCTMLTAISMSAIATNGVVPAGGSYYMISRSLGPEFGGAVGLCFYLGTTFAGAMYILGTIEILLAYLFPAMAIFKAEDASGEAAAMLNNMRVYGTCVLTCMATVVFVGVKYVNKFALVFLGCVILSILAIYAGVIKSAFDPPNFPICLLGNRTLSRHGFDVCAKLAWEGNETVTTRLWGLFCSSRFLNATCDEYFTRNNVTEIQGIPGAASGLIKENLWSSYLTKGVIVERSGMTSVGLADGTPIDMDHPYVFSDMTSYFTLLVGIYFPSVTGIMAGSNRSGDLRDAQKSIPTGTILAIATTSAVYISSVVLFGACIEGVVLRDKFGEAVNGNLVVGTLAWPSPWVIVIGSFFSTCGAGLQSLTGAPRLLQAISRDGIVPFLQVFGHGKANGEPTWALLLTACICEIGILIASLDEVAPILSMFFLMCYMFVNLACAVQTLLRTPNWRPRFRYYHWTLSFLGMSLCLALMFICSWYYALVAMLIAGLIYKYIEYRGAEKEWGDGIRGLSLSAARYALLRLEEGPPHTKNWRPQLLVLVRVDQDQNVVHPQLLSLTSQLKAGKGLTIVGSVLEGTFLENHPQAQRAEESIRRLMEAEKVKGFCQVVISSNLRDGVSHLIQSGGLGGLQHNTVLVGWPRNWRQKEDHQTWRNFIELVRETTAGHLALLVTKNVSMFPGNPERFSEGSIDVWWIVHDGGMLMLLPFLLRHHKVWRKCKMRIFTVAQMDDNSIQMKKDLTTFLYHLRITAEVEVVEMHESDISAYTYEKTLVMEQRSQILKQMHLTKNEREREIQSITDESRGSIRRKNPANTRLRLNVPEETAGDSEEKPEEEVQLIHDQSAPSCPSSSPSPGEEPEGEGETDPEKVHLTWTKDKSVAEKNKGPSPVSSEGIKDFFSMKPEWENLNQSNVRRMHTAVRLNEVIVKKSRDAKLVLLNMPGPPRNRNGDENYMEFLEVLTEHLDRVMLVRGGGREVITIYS
The campaign covered roughly 190,000 compounds. About 4,100 (2.2%) were called active. Only a selection was taken, and actives are over-represented in it overall.
Assay Metric: B-score of Tl+ flux slope (higher = more flux/activation; lower = inhibition)

- Compound: "O=c1c2ccccc2cnn1Cc1n[nH]c(=S)n1-c1ccccc1F"
  Observed Measurement: 0.755
- Compound: "O=C(Nc1ccn(Cc2ccccc2)n1)c1n[nH]c([N+](=O)[O-])c1Cl"
  Observed Measurement: -5.21
- Compound: "CC(=O)c1sc(NC(=O)c2cccc3ccccc23)nc1C"
  Observed Measurement: 3.04
- Compound: "CC(=O)Nc1ccc(C(=O)/C=C/c2ccc[nH]2)cc1"
  Observed Measurement: 0.0206
- Compound: "S=c1nccc(-c2cc(Cl)sc2Cl)[nH]1"
  Observed Measurement: 7.16
- Compound: "O=C(Nc1ccn(Cc2ccccc2)n1)c1cccc(F)c1"
  Observed Measurement: -4.17
- Compound: "CCC(O)CNc1nc(-n2nc(C)cc2C)nc2sc3c(c12)CC(C)(C)OC3 (centres undefined)"
  Observed Measurement: -1.67
- Compound: "COC(=O)c1nc2ccccc2s1"
  Observed Measurement: -0.0154
- Compound: "CCn1c(CSCc2c(Cl)cccc2Cl)n[nH]c1=S"
  Observed Measurement: -0.136
- Compound: "O=C(Nc1cccnc1)c1cc([N+](=O)[O-])ccc1Cl"
  Observed Measurement: -0.0312
- Compound: "COCCNc1nc(-n2nc(C)cc2C)nc2sc3c(c12)CCCC3"
  Observed Measurement: -4.01
- Compound: "CC(C)CCN1NC2(CCC(C)CC2)NC1=S (centres undefined)"
  Observed Measurement: 1.32
- Compound: "CCOc1ccc(NC(=O)CN(C)CC(=O)Nc2cccc(Cl)c2C)cc1OCC"
  Observed Measurement: -5.58
- Compound: "Cc1nc(C(=O)N2CCCC(C(=O)c3ccc(Cl)cc3)C2)cs1 (centres undefined)"
  Observed Measurement: -0.00258
- Compound: "COc1ccc(NCc2nnc(SCc3ccccc3)n2-c2ccc(OC)cc2)cc1"
  Observed Measurement: -2.95
- Compound: "COc1cccc(NC(=O)CN(C)CC(=O)Nc2ccc3c(c2)CCC3)c1"
  Observed Measurement: -0.353
- Compound: "CC1(C)Cc2ccccc2-c2nnc(-c3cccc(O)c3)n21"
  Observed Measurement: -0.616
- Compound: "COc1ccccc1OCc1nc2ccccc2s1"
  Observed Measurement: -1.36
- Compound: "O=S(=O)(Nc1ccc(OC(F)(F)F)cc1)c1cccc2nonc12"
  Observed Measurement: -0.299
- Compound: "c1cncc(-c2nnc3n2C2(CCCCC2)Cc2ccccc2-3)c1"
  Observed Measurement: 4.46
- Compound: "CCOC(=O)C1CCN(C(=O)Nc2ccc(C)c(Cl)c2)CC1"
  Observed Measurement: 0.0935
- Compound: "CCOC(=O)C1CCN(CCC(=O)Nc2cccc(C)c2)CC1"
  Observed Measurement: 0.406
- Compound: "CC(=O)c1sc(NC(=O)CCCOc2ccccc2C)nc1C"
  Observed Measurement: 0.355
- Compound: "Cc1ccc(NCc2n[nH]c(=S)n2-c2ccccc2)cc1Cl"
  Observed Measurement: 20.1
